Target: T1, SA2-SCC1 complex (SA2 80-1060 in complex with SCC1 281-420) (human | , UniProt Q8N3U4;O60216)
T1 sequence 1: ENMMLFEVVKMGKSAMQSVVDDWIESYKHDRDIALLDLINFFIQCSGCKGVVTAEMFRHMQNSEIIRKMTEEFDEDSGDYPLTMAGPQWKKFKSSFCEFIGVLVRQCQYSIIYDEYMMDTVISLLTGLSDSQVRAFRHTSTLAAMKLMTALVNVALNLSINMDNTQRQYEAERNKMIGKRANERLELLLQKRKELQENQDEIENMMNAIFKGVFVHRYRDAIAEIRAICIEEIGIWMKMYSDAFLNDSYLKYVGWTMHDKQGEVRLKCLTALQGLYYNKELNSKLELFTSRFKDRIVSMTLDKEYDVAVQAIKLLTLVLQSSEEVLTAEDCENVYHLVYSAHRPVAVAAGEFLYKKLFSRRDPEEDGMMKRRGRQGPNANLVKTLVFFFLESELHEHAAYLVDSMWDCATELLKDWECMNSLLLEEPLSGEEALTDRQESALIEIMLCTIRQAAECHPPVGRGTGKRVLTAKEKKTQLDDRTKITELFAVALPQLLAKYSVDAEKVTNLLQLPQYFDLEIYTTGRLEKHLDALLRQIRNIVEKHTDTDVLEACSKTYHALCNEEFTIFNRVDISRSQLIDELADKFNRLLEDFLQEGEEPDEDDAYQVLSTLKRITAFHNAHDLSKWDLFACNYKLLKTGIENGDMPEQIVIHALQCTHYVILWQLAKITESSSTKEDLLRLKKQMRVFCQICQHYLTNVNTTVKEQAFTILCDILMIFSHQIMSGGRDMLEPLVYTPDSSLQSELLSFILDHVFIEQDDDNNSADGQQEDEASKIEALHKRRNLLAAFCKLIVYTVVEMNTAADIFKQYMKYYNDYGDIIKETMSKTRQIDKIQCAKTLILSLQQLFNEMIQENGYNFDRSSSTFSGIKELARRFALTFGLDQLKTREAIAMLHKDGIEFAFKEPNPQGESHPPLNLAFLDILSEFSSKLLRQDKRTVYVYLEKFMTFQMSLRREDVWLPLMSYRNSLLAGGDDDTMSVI
T1 sequence 2: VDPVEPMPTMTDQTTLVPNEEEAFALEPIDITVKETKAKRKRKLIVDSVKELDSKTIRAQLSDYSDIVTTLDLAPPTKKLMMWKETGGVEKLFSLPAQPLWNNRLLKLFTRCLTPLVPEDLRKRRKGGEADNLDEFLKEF
Assay: peptide or protein array
Overview of recorded pKd for various binders
Keep it numeric: pKd is minus log10 of the concentration in mol/L.

Worked set:
{"columns": ["binder", "pKd"],
 "data": [
  ["FTRAYDFETED [SYCP3 array peptide from residue 21 (position 17)]", 5.71],
  ["KLSAFNFLDGS [yeast WAPL array peptide from residue 108 (position 10)]", 4.97],
  ["KIKYFGFDDLS [WAPL array peptide from residue 450 (position 8)]", 5.66],
  ["RKMAFEFDINS [SYCP1 array peptide from residue 882 (position 15)]", 5.17],
  ["DVSVFDFEEEQ [CTCF array peptide Y226F (position 2)]", 5.80]
]}

// sample KLEFFGFEDHE [WAPL array peptide from residue 425 (position 7)] , its pKd was 4.91

# pKd of TGDPFGFDSDD [WAPL array peptide from residue 70 (position 6)] = 5.23
